Tested on: H. influenzae
Assay: Broth dilution MIC determination (CLSI) against H. influenzae strains
Type: cell-based
Settings: Haemophilus influenzae, ATCC49247, ATCC49247; read-out: MIC H. influenzae ATCC49247
Assay Metric: MIC (µg/mL)
# unit: µg/mL | format: bare number

A selection of reference data follows.
1) CC[C@H]1OC(=O)[C@H](C)C(=O)[C@H](C)[C@@H](O[C@@H]2OC(Cn3cc(-c4ccccn4)nn3)CC(N(C)C)C2O)[C@](C)(OC)C[C@@H](C)CN[C@H](C)[C@H]2N(CCCCn3cc(-c4cccc(N)c4)nn3)C(=O)O[C@]12C (stereo partly shown) = 2
2) CC[C@H]1OC(=O)[C@H](C)C(=O)[C@H](C)[C@@H](O[C@@H]2OC(CNS(=O)(=O)c3cccnc3)CC(N(C)C)C2O)[C@](C)(OC)C[C@@H](C)CN[C@H](C)[C@H]2N(CCCCn3cc(-c4cccc(N)c4)nn3)C(=O)O[C@]12C (stereo partly shown) = 4
3) CC[C@H]1OC(=O)[C@H](C)C(=O)[C@H](C)[C@@H](O[C@@H]2OC(CNC(=O)C(Cl)Cl)CC(N(C)C)C2O)[C@](C)(OC)C[C@@H](C)CN[C@H](C)[C@H]2N(CCCCn3cc(-c4cccc(N)c4)nn3)C(=O)O[C@]12C (stereo partly shown) = 4

# context switch: different compound, same MIC
Inquiry: Consider the compound shown here: CC[C@H]1OC(=O)[C@H](C)C(=O)[C@H](C)[C@@H](O[C@@H]2OC(CNC(=O)c3cnccn3)CC(N(C)C)C2O)[C@](C)(OC)C[C@@H](C)CN[C@H](C)[C@H]2N(CCCCn3cc(-c4cccc(N)c4)nn3)C(=O)O[C@]12C (stereo partly shown) What is its recorded MIC?
Reply text: 8

----------
Tested on: E. coli
Assay: Broth dilution MIC determination (CLSI) against E. coli strains
Assay type: cell-based
Conditions: Escherichia coli, read-out: MIC E. coli CTX-M-14, CTX-M-14
The following compounds are shown together with reported MIC values.

A selection of reference data follows.
1. CC[C@H]1OC(=O)[C@H](C)C(=O)[C@H](C)[C@@H](O[C@@H]2OC(Cn3cc(-c4cccc(N)n4)nn3)CC(N(C)C)C2O)[C@](C)(OC)C[C@@H](C)CN[C@H](C)[C@H]2N(CCCCn3cc(-c4cccc(N)c4)nn3)C(=O)O[C@]12C (stereo partly shown) = > 32 µg/mL
2. CC[C@H]1OC(=O)[C@@](C)(F)C(=O)[C@H](C)[C@@H](O[C@@H]2O[C@H](C)C[C@H](N(C)C)[C@H]2O)[C@](C)(OC)C[C@@H](C)C(=O)[C@H](C)[C@H]2N(CCCCn3cc(-c4cccc(N)c4)nn3)C(=O)O[C@]12C [Solithromycin, solithromycin, reference compound] = > 32 µg/mL
3. CC[C@H]1OC(=O)[C@H](C)C(=O)[C@H](C)[C@@H](O[C@@H]2OC(CNC(=O)c3cnccn3)CC(N(C)C)C2O)[C@](C)(OC)C[C@@H](C)CN[C@H](C)[C@H]2N(CCCCn3cc(-c4cccc(N)c4)nn3)C(=O)O[C@]12C (stereo partly shown) = > 32 µg/mL

Inquiry: Consider the compound shown here: CC[C@H]1OC(=O)[C@H](C)[C@@H](O[C@H]2C[C@@](C)(OC)[C@@H](O)[C@H](C)O2)[C@H](C)[C@@H](O[C@@H]2O[C@H](C)C[C@H](N(C)C)[C@H]2O)[C@](C)(O)C[C@@H](C)CN(C)[C@H](C)[C@@H](O)[C@]1(C)O [Azithromycin, azithromycin, reference compound] What is its recorded MIC?
Reply text: > 32 µg/mL
